experiment: Metabolic stability in CD1 mouse liver microsomes assessed as half life at 1 uM; format: ADME, Microsome
Entries and their half-life at 1 µM
Endpoint Name: half-life at 1 µM

> print(dat)
                                   molecule      endpoint.name  assay.result
1  [2H]C([2H])(O)C1(C([2H])([2H])O[C@]2(c3ccc(Cl)cc3)c3ccc(C(C)(C)O)cc3C(=O)N2Cc2ccc(Cl)cc2)CC1  half-life at 1 µM        12 min
2  CC(C)(O)c1cc(F)c2c(c1)C(=O)N(Cc1ccc(Cl)cn1)[C@@]2(OCC1(C(N)=O)CC1)c1ccc(Cl)cc1  half-life at 1 µM      > 70 min
3  CC(C)(O)c1ccc2c(c1)C(=O)N(Cc1ccc(Cl)cc1)C2(OCC1(C(=O)O)CC1)c1ccc(Cl)cc1 (racemic)  half-life at 1 µM        40 min
4  CC(C)(O)c1cc(F)c2c(c1)C(=O)N(Cc1ccc(Cl)cn1)[C@@]2(OCC1(O)CC1)c1ccc(Cl)cc1  half-life at 1 µM        25 min
5  CC(C)(O)c1ccc2c(c1)C(=O)N(Cc1ccc(Cl)cc1)[C@@]2(OCC1(CO)CC1)c1ccc(Cl)cc1  half-life at 1 µM       < 5 min
6  [2H]C([2H])(O)C1(C([2H])([2H])O[C@]2(c3ccc(Cl)cc3)c3c(F)cc(C(C)(C)O)cc3C(=O)N2Cc2ccc(C#N)cn2)CC1  half-life at 1 µM        27 min
7  CC(C)(O)CCO[C@]1(c2ccc(Cl)cc2)c2ccc(C(C)(C)O)cc2C(=O)N1Cc1ccc(Cl)cc1  half-life at 1 µM        16 min
8  CC(C)(O)c1cc(F)c2c(c1)C(=O)N(Cc1ccc(C#N)cn1)[C@@]2(OCC1(CO)CC1)c1ccc(Cl)cc1  half-life at 1 µM        23 min
9  [2H]C([2H])(O)C1(C([2H])([2H])O[C@]2(c3ccc(Cl)cc3)c3c(F)cc(C(C)(C)O)cc3C(=O)N2Cc2ccc(Cl)cn2)CC1  half-life at 1 µM       < 5 min
